# EC50 per entry
# experiment_summary: ST_JUDE: Cytotoxicity using luciferase to measure ATP as an indicator of the viability of human Burkitt''s lymphoma lymphoblast cells (Raji)
# Assay type: toxicity, cell-based

compound	EC50
CN1/C(=C/c2cccc[n+]2C)Sc2ccccc21	4.05 µM
Cc1ccc2c(c1)C=C/C(=C\c1sc3ccccc3[n+]1C)N2C	0.74 µM
Nc1ccc(-c2nc3cc(-c4ccc5[nH]c(-c6ccc(N)cc6)nc5c4)ccc3[nH]2)cc1	> 38.3 µM
Oc1ccc(Br)cc1CN1CCN(Cc2ccccc2F)CC1	> 36.1 µM
O=S(=O)(c1ccc(Cl)cc1)N1CCN(C(=S)NCc2ccco2)CC1	> 30.1 µM
C[n+]1ccccc1/C=C/c1ccc([N+](=O)[O-])cc1	> 33.8 µM
COc1ccc2c(c1)N(C)/C(=C/c1cccc[n+]1C)S2	6.52 µM
Cc1ccc(C(O)(CNCc2ccccc2)c2ccc(Br)cc2)cc1 (stereo not drawn)	35.5 µM
Cc1oc2c(c1C(=O)NCCC(C)C)C(=O)c1ccccc1C2=O	> 42.5 µM
CCCn1c2c(c(=N)c3c1CCC3)CCCC2	> 40.3 µM
CC(C)CN1C(=O)c2ccccc2C(C(=O)Nc2ccc(F)cc2F)C1c1cccs1 (stereo not drawn)	> 43.3 µM
CCO/C(O)=C1\C(C)=NC2=C(C(=O)CC(c3ccc(OC)c(OC)c3)C2)C1c1cccc(C)c1 (stereo not drawn)	> 40.6 µM
Cc1ccc2c(c1)S/C(=C\c1sc3ccccc3[n+]1C)N2CCO	3.09 µM
CCOC(=O)C1=C(C)N=c2s/c(=C\c3cc(Cl)ccc3O)c(=O)n2C1c1ccc(N(C)C)cc1 (stereo not drawn)	> 18.2 µM
CCN1/C(=C/c2cccc[n+]2C)Sc2ccc(OC)cc21	3.16 µM
CCOc1cc(C2CC(=O)NC3=C2C(=O)CC(c2ccccc2Cl)C3)cc(Cl)c1O (stereo not drawn)	> 43.2 µM
Oc1ccc(Cl)cc1CN1CCN(c2cccc(C(F)(F)F)c2)CC1	> 35.3 µM
CCOC(=O)C1(Cc2ccc(Cl)cc2)CCN(Cc2ccccc2O)CC1	> 56.9 µM

====

# Tested on: Plasmodium falciparum
# experiment_summary: ST_JUDE: Cytotoxicity against Plasmodium falciparum D10 transfected with yeast DHOD
# Format: functional, organism-based
// EC50 lookup, one value per entry

compound	inequality_symbol	EC50 / nM
CC(C)CN1C(=O)c2ccccc2C(C(=O)Nc2ccc(F)cc2F)C1c1cccs1 (centres undefined)	=	687
COc1ccc(C2CC3=NC(C)=C(C(=O)OC(C)C)C(c4ccccc4OC)C3=C(O)C2)cc1OC (centres undefined)	=	637
CCOc1ccc(Nc2cc(C)c3ccc(O)cc3n2)cc1	=	504
CCN(CC)Cc1cc(Nc2ccnc3cc(Cl)ccc23)ccc1O	=	49.9
Cc1cccc(CN2CCC(CNC(=S)Nc3ccc4nc(N5CCN(C)CC5)cc(C)c4c3)CC2)c1	=	1050
CCOC(=O)c1cnc2c(OC)cccc2c1Nc1ccc(OC)c(OC)c1	>	11600
CO/C(O)=C1\C(C)=NC2=C(C(=O)CC(c3ccc(OC)c(OC)c3)C2)C1c1ccccc1C (centres undefined)	=	196
COc1ccc(NC(=O)C2c3ccccc3C(=O)N(CC(C)C)C2c2cccs2)cc1Cl (centres undefined)	=	133
CCCN(C(=O)C(=O)Nc1ccc2nc3n(c(=O)c2c1)CCCCC3)c1ccc(OCC)cc1	=	220

====

# Test system: Plasmodium falciparum
# experiment_summary: ST_JUDE: Plasmodium falciparum 3D7 EC50 (uM) as measured by SYBR green dye
# Assay type: functional, organism-based

compound	EC50
COc1ccc2ncc(C(=O)c3ccccc3)c(N3CCN(C)CC3)c2c1	> 15 µM
CC(=O)C1=C(c2ccc(Br)cc2)N(C(C)=O)n2cnnc2S1	> 15 µM
Cc1cc(Nc2ccc(F)c(Cl)c2)n2nc(C)nc2n1	3.2 µM
CCc1ccc(N(CC)C(=O)c2cc3cc4ccc(OC)cc4nc3o2)cc1	> 15 µM
CCOc1ccc(-c2nc(NC(=O)c3cccc(S(C)(=O)=O)c3)sc2C)cc1	> 15 µM
Cc1cc(Cn2ccnc2)c(C)c([N+](=O)[O-])c1Cn1ccnc1	> 15 µM
Cc1c(C=O)c2ccccc2n1CC(=O)Nc1cccc(I)c1	3 µM
CC1CCN(Cc2cc(COCc3ccccc3)c3cccnc3c2O)CC1	2.87 µM
N#Cc1ccc(C(=O)N(Cc2cccnc2)c2nc3c(F)cccc3s2)cc1	> 15 µM
CNC(=O)C(=O)N1CCC2(CC1)OCCN2S(=O)(=O)c1ccc(C)cc1	> 15 µM
CCN(CC)C(=O)c1sc(NC(=O)CCc2ccccc2)c(C(=O)OC(C)C)c1C	> 15 µM
CCC(=O)NC(c1ccc(Cl)cc1)c1ccc2cccnc2c1O (stereo not drawn)	2.05 µM
C/C(Cl)=C\C[N+]1(C/C=C(\C)Cl)CCCCC1	> 15 µM
OCCC1CN(Cc2c(F)cccc2F)CCN1Cc1ccc(F)cc1 (stereo not drawn)	> 15 µM
CN(C)CCNC(=O)c1ccc2c(c1)sc1nc(-c3ccc(F)cc3)cn12	3.19 µM
COc1ccc(C2CC(=O)C3=C(C2)NC(=O)CC3c2ccc(Br)cc2)cc1OC (stereo not drawn)	1.14 µM
Cc1ccc(C(NC(=O)CC(C)C)c2ccc3cccnc3c2O)cc1 (stereo not drawn)	> 15 µM
Cc1ccn2c(Nc3ccccc3)c(-c3ccccn3)nc2c1	> 15 µM

====

# experiment_summary: ST_JUDE: Cytotoxicity using luciferase to measure ATP as an indicator of the viability of human epithelial hepatocellular carcinoma cells (HepG2)
# Assay type: toxicity, cell-based
pEC50: −log10 of the molar value.

compound	pEC50
OC(CNC1CCCCC1)Cn1c2ccc(Cl)cc2c2cc(Cl)ccc21 (centres undefined)	4.76
CC(O)(c1ccc(Cl)cc1)C(CN1CCCCC1)c1ccccc1 (centres undefined)	< 4.30
Cc1oc2c(c1C(=O)NCCC(C)C)C(=O)c1ccccc1C2=O	< 4.37
CCOc1ccccc1N1CCN(Cc2cc(Br)cc(OC)c2O)CC1	< 4.43
CCCO/C(O)=C1\C(C)=NC2=C(C(=O)CC(c3ccc(OC)c(OC)c3)C2)C1c1ccccc1C (centres undefined)	< 4.38
CCCCOc1ccc(N(C(C)=O)C2=C(N3CCOCC3)C(=O)c3ccccc3C2=O)cc1	5.41
Cc1cccc(N2CCN(Cc3ccccc3O)CC2)c1C	< 4.49
Cc1ccccc1/N=C1\C=C(NS(=O)(=O)c2ccc(F)cc2)c2ccccc2C1=O	5.21
CCCCCOc1ccc(N(C(C)=O)C2=C(N3CCOCC3)C(=O)c3ccccc3C2=O)cc1	4.65
Cn1c(=O)c2c(-c3ccc(C(C)(C)C)cc3)n(-c3cc(Cl)ccc3O)cc2n(C)c1=O	< 4.40
C[N+](C)(C)c1nc(N2CCOCC2)nc(N(c2ccccc2)c2ccccc2)n1	< 4.37
O=C1C(Nc2ccc(Br)cc2)=C(n2nnc3ccccc32)C(=O)c2ccccc21	< 4.61
C=CCN1C=CC=C/C1=C\c1sc2ccccc2[n+]1C	< 4.45
CN(C(=O)c1cc2c(s1)-c1ccccc1S(=O)(=O)C2)c1cccc(C(F)(F)F)c1	< 4.39
COCCO/C(O)=C1\C(C)=NC2=C(C(=O)CC(c3ccc(OC)c(OC)c3)C2)C1c1ccccc1F (centres undefined)	< 4.40
CCCO/C(O)=C1\C(C)=NC2=C(C(=O)CC(c3ccc(OC)c(OC)c3)C2)C1c1cccc(C)c1 (centres undefined)	4.39
Cc1ccc(C)c(N2CCN(Cc3cc(Br)ccc3O)CC2)c1	< 4.45
CC(C)c1ccc(S(=O)(=O)NC2=C/C(=N\c3ccc(O)cc3)C(=O)c3ccccc32)cc1	5.65
CSc1ccc2ccccc2[n+]1C	< 4.43
CCCCN(CCCC)CC(O)COc1ccccc1C(=O)Nc1ccccc1 (centres undefined)	< 4.27
CC(=O)c1cccc(NC(=O)C2c3ccccc3C(=O)N(CC(C)C)C2c2cccs2)c1 (centres undefined)	< 4.36
CCCO/C(O)=C1\C(C)=NC2=C(C(=O)CC(c3ccc(OC)cc3)C2)C1c1ccccc1Cl (centres undefined)	< 4.38
CCc1nc2nc(C)cc(Nc3ccc(I)cc3)n2n1	< 4.40
COc1ccc(Nc2cc(C)nc(Nc3ccc(NS(=O)(=O)c4ccc(OC)cc4)cc3)n2)cc1	4.76

====

# System: Plasmodium falciparum
# experiment_summary: ST_JUDE: Plasmodium falciparum K1 EC50 (uM) as measured by SYBR green dye
# Format: functional, organism-based
We label by threshold. Values of EC50 strictly beneath 0.7 µM are yes. Values of 0.7 µM and up are no.

compound	class_label
O=C(c1ccc(C(F)(F)F)cc1)N(Cc1ccc(OCc2ccc(F)cc2)cc1)Cc1cccnc1	no
CN(C)CCNCCCOc1ccc(Cl)cc1Cc1ccccc1	no
COc1ccc(OCC(O)CN2CCN(c3ccc(OC)cc3)CC2)cc1 (stereo not given)	no
CCCCCn1c(=O)c2c(nc3n(-c4ccccc4OCC)c(C)cn23)n(C)c1=O	no
CCCCc1ccc2nc(C)c(CN3CCC(C)CC3)c(O)c2c1	no
Cc1ccc(CNC(=O)/C=C/c2ccc([N+](=O)[O-])cc2)cc1	no
CC(C)(C)c1ccc(C(=O)CC(=O)c2cc(Cl)ccc2O)cc1	no
CCOCCCNC(=O)c1cc2c(-c3cccc(OC)c3)nn(C)c2s1	no
COc1ccc(NC2=C/C(=N/S(=O)(=O)c3ccc(C(C)C)cc3)c3ccccc3C2=O)cc1	yes
Oc1c(CN2CCN(c3ccccc3F)CC2)cc(Br)c2cccnc12	no
CC(=O)N1CCc2c(sc(NC(=O)c3ccc(C)c(C)c3)c2C(N)=O)C1	no
O=C(NCCN1CCC(Cc2ccccc2)CC1)c1cc(-c2cccnc2)nc2ccccc12	no
CCCCN(CC)CCNC(=O)c1cc2cc3ccc(C)cc3nc2o1	no
CCCN(CCC)CCCNC(=O)c1ccc2c(Cl)c3c(nc2c1)CCCC3	no
CCOC(=O)N1CCN(C(=O)CN(Cc2ccc(Cl)cc2)S(=O)(=O)c2ccc(C)cc2)CC1	no
CCCO/C(O)=C1\C(C)=NC2=C(C(=O)CC(c3ccc(OC)c(OC)c3)C2)C1c1ccccc1Cl (stereo not given)	yes
CCOC(=O)N1CCC(NC(=O)Nc2cc(C(F)(F)F)cc(C(F)(F)F)c2)CC1	no
Cc1cc(N(C)C)nc(Nc2ccc(NS(=O)(=O)c3cc(C(C)C)ccc3C)cc2)n1	no
Cc1ccc(C)c(N2CCN(Cc3cc(Br)ccc3O)CC2)c1	yes
Cc1cccn2c(=O)nc(SCc3cccc(F)c3)nc12	no
COCCCn1c(=N)c(C(=O)NCc2cccnc2)cc2c(=O)n3cccc(C)c3nc21	no
CN1CCN(c2ccc(-c3cccc(NC(=O)c4cccc([N+](=O)[O-])c4)c3)nn2)CC1	no
CCOc1ccc2c(c1)C(=NNC(=N)N)c1cc(OCC)ccc1-2	no
CCOc1cc(C2C3=C(O)CC(c4ccc(OC)cc4)CC3=NC(C)=C2C(=O)OC)ccc1O (stereo not given)	no
CCCOc1cc(S(=O)(=O)n2ccnc2)ccc1Cl	no
C=CCn1c(=N)n(CC(O)COc2cccc(C)c2)c2ccccc21 (stereo not given)	no
Cc1ccc2c(c1)N(C)/C(=C/c1cccc[n+]1C)S2	yes
CSc1cccc(NC(=O)C2c3ccccc3C(=O)N(CC(C)C)C2c2cccs2)c1 (stereo not given)	yes
CCC(=O)NC(c1ccc(N(C)C)cc1)c1ccc2cccnc2c1O (stereo not given)	no
